TEST_SYSTEM: PI3K-gamma (Homo sapiens, UniProt P48736)
Sequence (P48736 whole entry, species assumed): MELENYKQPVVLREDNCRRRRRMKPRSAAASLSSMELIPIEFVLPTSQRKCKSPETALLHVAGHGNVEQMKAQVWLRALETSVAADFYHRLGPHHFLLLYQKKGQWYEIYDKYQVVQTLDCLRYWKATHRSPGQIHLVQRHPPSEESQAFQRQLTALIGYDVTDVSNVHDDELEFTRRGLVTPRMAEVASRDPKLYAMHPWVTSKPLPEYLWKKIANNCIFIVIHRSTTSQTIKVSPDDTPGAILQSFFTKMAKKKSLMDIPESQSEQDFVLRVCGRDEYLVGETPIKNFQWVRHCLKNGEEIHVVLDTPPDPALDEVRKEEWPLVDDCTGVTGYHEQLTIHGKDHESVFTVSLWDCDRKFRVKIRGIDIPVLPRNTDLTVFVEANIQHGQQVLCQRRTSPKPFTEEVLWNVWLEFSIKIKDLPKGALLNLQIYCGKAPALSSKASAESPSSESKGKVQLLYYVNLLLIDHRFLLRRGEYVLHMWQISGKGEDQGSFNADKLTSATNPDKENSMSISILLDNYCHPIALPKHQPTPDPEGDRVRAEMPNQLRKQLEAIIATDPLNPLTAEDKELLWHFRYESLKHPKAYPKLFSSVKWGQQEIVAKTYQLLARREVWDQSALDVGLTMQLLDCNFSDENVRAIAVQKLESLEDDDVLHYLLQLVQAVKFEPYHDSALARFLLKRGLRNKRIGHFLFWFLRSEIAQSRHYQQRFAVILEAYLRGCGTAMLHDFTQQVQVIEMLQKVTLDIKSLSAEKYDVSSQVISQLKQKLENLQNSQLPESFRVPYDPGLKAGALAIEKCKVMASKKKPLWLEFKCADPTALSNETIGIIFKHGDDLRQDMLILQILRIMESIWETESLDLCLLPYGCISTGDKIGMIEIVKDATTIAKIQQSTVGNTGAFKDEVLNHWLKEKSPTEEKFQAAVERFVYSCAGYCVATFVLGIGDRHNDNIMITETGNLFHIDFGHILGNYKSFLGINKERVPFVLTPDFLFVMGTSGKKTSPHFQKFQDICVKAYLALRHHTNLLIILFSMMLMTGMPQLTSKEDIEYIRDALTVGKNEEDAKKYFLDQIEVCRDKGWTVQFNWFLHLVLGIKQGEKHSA
ASSAY_SUMMARY: PI3K-gamma fluorescence polarization assay
Assay type: biochemical
ASSAY_CONTEXT: PI3Kγ Avg. IC50
ASSAY_READOUT: log10(IC50) (log10 of the value in nM)

1) Cn1cc(/C=C2\Oc3cc(O)cc(O)c3C2=O)c2c(-c3ccc(NC(=O)N4CCOCC4)cc3)cccc21
3.22
2) CNC(=O)Nc1ccc2c(c1)C(=O)/C(=C/c1c(C)n(CCCN3CCC(O)C3)c3ccc(OC)cc13)O2 (centres unmarked)
2.99
3) COc1ccc2c(c1)c(/C=C1\Oc3cc(O)ccc3C1=O)c(C)n2CCN1CCCC1C (centres unmarked)
2.74
4) CNC(=O)Nc1ccc2c(c1)C(=O)/C(=C/c1c(Br)[nH]c3ccc(OC)cc13)O2
2.02
5) CCn1c(C)c(/C=C2\Oc3ccc(NC(=O)Nc4ccc(OCCCCN(C)C)cc4)cc3C2=O)c2cc(OC)ccc21
1.09
6) COc1ccc2[nH]cc(/C=C3\Oc4cc(O)cc(C(N)=O)c4C3=O)c2c1
3.06

====

TEST_SYSTEM: human TOR (Homo sapiens)
Construct: FLAG
ASSAY_SUMMARY: mTOR enzyme assay (DELFIA, His6-S6K substrate)
Format: biochemical
ASSAY_CONTEXT: read-out: mTOR Kinase Avg. IC50
pIC50: −log10 of the molar value.
ASSAY_READOUT: pIC50

1. COc1ccc2c(c1)c(/C=C1\Oc3cc(O)ccc3C1=O)c(C1CC1)n2CCN1CCN(C)CC1
6.68
2. COc1ccc2c(c1)c(/C=C1\Oc3cc(O)cc(O)c3C1=O)cn2CCN1CCC(O)C1 (centres unmarked)
6.27
3. Cn1cc(/C=C2\Oc3cc(O)cc(O)c3C2=O)c2c(-c3ccc(NC(=O)NC4CC4)cc3)cccc21
7.21
4. Cc1[nH]c2ccccc2c1/C=C1\Oc2cc(O)cc(O)c2C1=O
6.30
5. COc1ccc2[nH]c(-c3c(C)nn(C)c3C)c(/C=C3\Oc4ccc(NC(=O)Nc5ccc(C(=O)N(C)C6CCN(C)C6)cc5)cc4C3=O)c2c1 (centres unmarked)
9.00
6. COc1ccc2c(c1)c(/C=C1\Oc3cc(O)ccc3C1=O)c(C)n2CCCN(C)C
5.43

====

TEST_SYSTEM: PI3K-gamma (Homo sapiens)
ASSAY_SUMMARY: PI3K-gamma fluorescence polarization assay
Assay type: biochemical
ASSAY_CONTEXT: PI3Kγ Avg. IC50
Protocol: PI3K-Alpha, PI3K-Beta, PI3K-Gamma, and PI3K-delta Fluorescence Polarization Assay Protocols PI3-Kinase reactions were performed in 5 mM HEPES, pH 7, 2.5 mM MgCl2, and 25 μM ATP, with diC8-PI(4,5)P2 (Echelon, Salt Lake City Utah) as substrate. Nunc 384-well black polypropylene fluorescent plates were used for PI3K assays. […] Assay Plates were read on Perkin-Elmer Envision plate readers with appropriate filters for Tamra [BODIPY-TMRI(1,3,4,5)P4]. […]
pIC50: −log10 of the molar value.
Quick rule: pIC50 of at least 6 means Y, below that means N.

1) CN(C)C(=O)Nc1ccc(-c2cccc3c2c(/C=C2\Oc4cc(O)cc(O)c4C2=O)cn3C)cc1
N
2) Cc1cccc2c1c(/C=C1\Oc3cc(O)cc(O)c3C1=O)c(-c1ccccc1)n2C
N
3) CN1CCN(CCn2cc(/C=C3\Oc4cc(O)cc(O)c4C3=O)c3c(-c4ccc(N(C)C)cc4)cccc32)CC1
N
4) CCn1cc(/C=C2\Oc3ccc(NC(=O)Nc4ccc(C(=O)N5CCN(C)CC5)cc4)cc3C2=O)c2cc(OC)ccc21
Y
5) COc1ccc2[nH]c(CN(C)C)c(/C=C3\Oc4cc(O)cc(O)c4C3=O)c2c1
Y
6) Cn1cc(/C=C2\Oc3cc(O)cc(O)c3C2=O)c2c(-c3ccccc3N)cccc21
N

====

TEST_SYSTEM: human TOR (Homo sapiens, UniProt P42345)
Construct: FLAG
ASSAY_SUMMARY: mTOR enzyme assay (DELFIA, His6-S6K substrate)
Type: biochemical
ASSAY_CONTEXT: read-out: mTOR Kinase Avg. IC50
pIC50: −log10 of the molar value.
As shown below, each of these compounds has a reported pIC50 value.
ASSAY_READOUT: pIC50

1) COc1ccc2c(c1)c(/C=C1\Oc3cc(O)ccc3C1=O)c(C(=O)N1CCOCC1)n2CCN1CCN(C)CC1
5.55
2) COc1ccc2c(c1)c(/C=C1\Oc3cc(O)cc(Br)c3C1=O)c(C)n2CCN1CCN(C)CC1
6.30
3) COc1ccc2c(c1)c(/C=C1\Oc3ccc(NC(=O)Nc4cccnc4)cc3C1=O)c(C)n2CCN1CCN(C)CC1 [Compound 632]
7.31
4) COc1cc(F)c2[nH]c(-c3c(C)nn(C)c3C)c(/C=C3\Oc4ccc(NC(=O)NCCN)cc4C3=O)c2c1
9.00
5) O=C1/C(=C/c2c[nH]c3ccc(Br)cc23)Oc2cc(O)cc(O)c21
5.43
6) COc1ccc2c(c1)c(/C=C1\Oc3cc(O)cc(O)c3C1=O)cn2CCn1ccnc1
6.82
7) CNC(=O)Nc1ccc2c(c1)C(=O)/C(=C/c1c(-c3ccc(CN(C)C)cc3)n(CCN3CCN(C)CC3)c3ccc(OC)cc13)O2
6.70
8) CCn1c(C)c(/C=C2\Oc3ccc(NC(=O)Nc4ccc(OCCN(C)C)cc4)cc3C2=O)c2cc(OC)ccc21
6.82
9) O=C1/C(=C/c2c(-c3ccc(Cl)cc3)[nH]c3ccccc23)Oc2c1ccc(O)c2O
5.02
10) CNC(=O)Nc1ccc2c(c1)C(=O)/C(=C/c1c(-c3c(C)nn(C)c3C)[nH]c3c(C)cc(OC)cc13)O2
7.74
11) N#Cc1ccc2c(C=C3Oc4cc(O)cc(O)c4C3=O)c[nH]c2c1
5.28
12) O=C1C(=Cc2c(-c3cccc(F)c3)[nH]c3ccccc23)Oc2cc(O)cc(O)c21
6.72
13) COc1ccc2c(c1)c(/C=C1\Oc3cc(O)cc(O)c3C1=O)cn2CCN1CCC(O)CC1
6.58
14) CNC(=O)Nc1ccc2c(c1)C(=O)/C(=C/c1c(-c3c(C)nn(C)c3C)[nH]c3c(C(F)(F)F)cc(OC)cc13)O2
6.28
15) CNCCNC(=O)c1ccc(NC(=O)Nc2ccc3c(c2)C(=O)/C(=C/c2c(C)n(CCN4CCN(C)CC4)c4ccc(OC)cc24)O3)cc1
8.40
16) Cn1c(-c2ccc(OCc3ccccc3)cc2)c(C=C2Oc3cc(O)cc(O)c3C2=O)c2ccccc21
5.35
17) Cn1c(-c2ccc(F)c(Cl)c2)c(C=C2Oc3cc(O)cc(O)c3C2=O)c2ccccc21
5.85
18) COc1ccc2[nH]c(-c3c(C)nn(C)c3C)c(/C=C3\Oc4ccc(NC(=O)Nc5cccc(C(=O)N(C)CCCN(C)C)c5)cc4C3=O)c2c1
6.94
19) CNC(=O)Nc1ccc2c(c1)C(=O)/C(=C/c1c(N3CCN(C)CC3)n(CCN3CCN(C)CC3)c3ccc(OC)cc13)O2
6.78
20) O=C1C(=Cc2c(-c3ccccc3)[nH]c3ccccc23)Oc2cccc(O)c21
5.23
21) CCn1c(C)c(/C=C2\Oc3ccc(NC(=O)Nc4ccc(NCCN(C)C)cc4)cc3C2=O)c2cc(OC)ccc21
6.89
22) COc1ccc2[nH]c(-c3c(C)nn(C)c3C)c(/C=C3\Oc4ccc(NC(=O)Nc5ccc(C(=O)N6CCOCC6)cc5)cc4C3=O)c2c1
8.40
23) Cn1cc(/C=C2\Oc3cc(O)cc(O)c3C2=O)c2c(-c3cccc(O)c3)cccc21
7.05
24) COc1ccc2[nH]c(C3CCCCC3)c(/C=C3\Oc4ccc(NC(=O)Nc5ccc(C(=O)N(C)CCN(C)C)cc5)cc4C3=O)c2c1
8.22

====

As shown below, each of these compounds has a reported IC50 value.
TEST_SYSTEM: PI3K-alpha (Homo sapiens)
Sequence (P42336 whole entry, species assumed): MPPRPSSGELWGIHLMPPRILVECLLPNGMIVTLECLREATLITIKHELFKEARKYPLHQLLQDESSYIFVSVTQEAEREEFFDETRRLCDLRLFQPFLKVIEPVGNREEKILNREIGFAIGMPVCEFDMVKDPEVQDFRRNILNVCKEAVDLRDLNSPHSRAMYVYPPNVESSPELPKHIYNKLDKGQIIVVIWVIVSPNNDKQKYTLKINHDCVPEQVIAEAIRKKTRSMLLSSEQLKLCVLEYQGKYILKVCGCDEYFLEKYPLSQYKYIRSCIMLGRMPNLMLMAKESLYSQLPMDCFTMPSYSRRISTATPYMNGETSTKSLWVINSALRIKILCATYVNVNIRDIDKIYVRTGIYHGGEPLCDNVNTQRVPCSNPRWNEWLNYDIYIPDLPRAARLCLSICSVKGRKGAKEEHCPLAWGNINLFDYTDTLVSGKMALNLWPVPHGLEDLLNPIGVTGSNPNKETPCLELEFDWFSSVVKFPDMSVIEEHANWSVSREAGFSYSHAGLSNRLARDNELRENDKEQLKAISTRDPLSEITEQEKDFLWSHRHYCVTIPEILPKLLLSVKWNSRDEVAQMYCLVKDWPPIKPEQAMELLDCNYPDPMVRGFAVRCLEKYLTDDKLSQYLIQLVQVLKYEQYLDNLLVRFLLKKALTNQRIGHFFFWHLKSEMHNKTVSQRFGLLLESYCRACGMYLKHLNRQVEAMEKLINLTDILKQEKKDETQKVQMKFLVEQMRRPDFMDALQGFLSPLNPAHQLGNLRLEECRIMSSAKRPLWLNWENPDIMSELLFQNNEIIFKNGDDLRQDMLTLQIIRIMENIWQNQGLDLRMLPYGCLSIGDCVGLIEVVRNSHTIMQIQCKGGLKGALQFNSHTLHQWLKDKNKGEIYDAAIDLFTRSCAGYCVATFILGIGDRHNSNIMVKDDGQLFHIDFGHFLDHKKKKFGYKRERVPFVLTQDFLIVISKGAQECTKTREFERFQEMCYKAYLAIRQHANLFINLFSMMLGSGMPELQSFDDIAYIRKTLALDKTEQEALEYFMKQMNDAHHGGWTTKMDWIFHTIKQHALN
Sequence (P27986 whole entry partner, species assumed): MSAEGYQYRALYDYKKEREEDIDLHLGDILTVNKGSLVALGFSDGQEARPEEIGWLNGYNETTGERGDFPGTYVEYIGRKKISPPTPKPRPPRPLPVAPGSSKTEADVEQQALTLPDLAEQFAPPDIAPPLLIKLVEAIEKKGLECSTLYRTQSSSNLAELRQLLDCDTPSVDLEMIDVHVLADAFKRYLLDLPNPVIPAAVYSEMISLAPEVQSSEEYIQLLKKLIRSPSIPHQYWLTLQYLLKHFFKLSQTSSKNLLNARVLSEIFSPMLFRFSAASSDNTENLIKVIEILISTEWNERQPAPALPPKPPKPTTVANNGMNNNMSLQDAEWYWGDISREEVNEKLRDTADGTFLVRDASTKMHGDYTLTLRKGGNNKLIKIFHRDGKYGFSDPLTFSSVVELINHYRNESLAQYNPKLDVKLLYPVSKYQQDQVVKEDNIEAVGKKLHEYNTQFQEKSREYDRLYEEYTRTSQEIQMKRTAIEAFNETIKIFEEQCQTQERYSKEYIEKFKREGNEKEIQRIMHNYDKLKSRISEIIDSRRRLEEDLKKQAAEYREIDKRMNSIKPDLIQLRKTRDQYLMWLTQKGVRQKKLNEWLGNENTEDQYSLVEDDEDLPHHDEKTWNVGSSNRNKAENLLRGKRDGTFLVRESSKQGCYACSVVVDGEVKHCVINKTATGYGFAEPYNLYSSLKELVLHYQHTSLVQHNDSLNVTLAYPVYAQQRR
ASSAY_SUMMARY: PI3K-alpha fluorescence polarization assay
Format: biochemical
ASSAY_CONTEXT: read-out: PI3Kα Avg. IC50
ASSAY_READOUT: IC50 (nM)

1. COC(=O)Nc1ccc2c(c1)C(=O)/C(=C/c1cn(CCCN(C)C)c3ccc(OC)cc13)O2
820
2. O=C1C(=Cc2c(-c3ccccc3)n(CC3CC3)c3ccccc23)Oc2cc(O)cc(O)c21
4180
3. CNCCNC(=O)Nc1ccc2c(c1)C(=O)/C(=C/c1c(-c3c(C)nn(C)c3C)[nH]c3c(F)cc(OC)cc13)O2
0.95
4. CCn1c(C)c(/C=C2\Oc3ccc(NC(=O)Nc4ccc(N(C)CCCN(C)C)cc4)cc3C2=O)c2cc(OC)ccc21
4
5. CNC(=O)Nc1ccc2c(c1)C(=O)/C(=C/c1c(CN(C)C)[nH]c3ccc(OC)cc13)O2
15.5
6. Cn1cc(/C=C2\Oc3cc(O)cc(O)c3C2=O)c2c(-c3ccoc3)cccc21
971
7. Cc1c(C=C2Oc3cc(O)cc(O)c3C2=O)c2ccccc2n1CCCCl
2380
8. O=C1C(=Cc2c[nH]c3cccc(Br)c23)Oc2cc(O)cc(O)c21
1510
